Origin of the recorded values: patent US20260265404A1

target: human full-length CD33 (CD33^FL) (UniProt P20138 18-364); experiment: SPR (Carterra); 1 µg/mL
Sequence (P20138 18-364): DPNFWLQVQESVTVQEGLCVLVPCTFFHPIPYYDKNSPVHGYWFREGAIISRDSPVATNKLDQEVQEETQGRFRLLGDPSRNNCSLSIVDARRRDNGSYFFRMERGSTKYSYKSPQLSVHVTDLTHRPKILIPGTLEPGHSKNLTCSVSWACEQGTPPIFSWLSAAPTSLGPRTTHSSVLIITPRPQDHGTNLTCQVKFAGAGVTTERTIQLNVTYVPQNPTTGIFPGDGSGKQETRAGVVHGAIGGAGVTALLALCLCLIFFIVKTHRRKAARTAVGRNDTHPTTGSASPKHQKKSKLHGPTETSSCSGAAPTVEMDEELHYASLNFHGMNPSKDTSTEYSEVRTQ
property measured: pKd
Keep in mind that pKd stands for -log10 of concentration in molar terms.

Data request: So what's the measured pKd for this one? 1E6 antibody (human CD33^PAN antibody clone, hybridoma-derived) (antibody, V domains shown) VH: QVQLVESGGGVVQPGRSLRLSCAASGFTFSSYDIHWVRQAPGKGLEWVAVIWYDGSHNYYSDSVKGRFTISRDNSKNTLYLQMNSLRAEDTAVYYCARDYSGSYYDYWGQGTLVTVSS VL: AIQMTQSPSSLSASVGDRVTITCRASQGIRNDLGWYQQKPGKAPKLLIYAASNLQSGVPSRFSGSGSGTDFTLTISSLQPEDFATYYCLQDYSYPRTFGQGTKVEIK
Data returned: 7.17
